A collection of molecules and their measured pEC50
test system: Plasmodium falciparum; experiment: ST_JUDE: Cytotoxicity against Plasmodium falciparum SB-A6; assay type: functional, organism-based
Value format note: pEC50 is -log10 of concentration (mol/L); just state the number.

Consider the following illustrative entries.
molecule	measurement_target	pEC50
CCOc1ccc(Nc2nc(NCc3ccccc3)c3ccccc3n2)cc1	Plasmodium falciparum	6.52
Oc1ccc(C2NCc3ccccc3-n3cccc32)cc1Cl (stereo not given)	Plasmodium falciparum	5.63
C=CCn1c(=N)n(CC(O)c2ccc(Cl)c(Cl)c2)c2ccccc21 (stereo not given)	Plasmodium falciparum	5.60
Cc1ccc2c(c1)N(C)/C(=C/c1cccc[n+]1C)S2	Plasmodium falciparum	5.99

Lookup result for `Cc1c2[nH]c3ccccc3c2c2c([n+]1C)CC(C)(C)CC2` ; measured pEC50: 5.98

###

tested on: Plasmodium falciparum; test: ST_JUDE: Plasmodium falciparum 3D7 EC50 (uM) as measured by SYBR green dye; assay type: functional, organism-based
pEC50: −log10 of the molar value.
result_type: pEC50

Consider the following illustrative entries.
compound	pEC50
Cc1nc2nc(NCc3cccc(Br)c3)nn2c(O)c1C	< 4.82
COC(=O)c1c(S(=O)(=O)NCc2ccccc2)sc2c1CCN(Cc1ccc(OC)cc1)C2	< 4.82
Cc1ccc(C)c(C(C)NC(=S)Nc2ccc([N+](=O)[O-])cc2)c1 (stereo not given)	< 4.82
COC(=O)c1c(S(=O)(=O)N2CCCN(C)CC2)sc2c1CCN(CC(C)c1ccccc1)C2 (stereo not given)	< 4.82
COc1cc(-c2nc(-c3ccccc3)c(-c3ccccc3)[nH]2)cc(OC)c1OC	< 4.82

Lookup result for COc1cc(CN(Cc2cccnc2)C(=O)c2[nH]c3ccc(Cl)cc3c2C)ccc1OC1CCOC1 (stereo not given) ; measured pEC50: < 4.82

Lookup result for `N#C/C(=C/c1ccc(O)c([N+](=O)[O-])c1)c1nc(-c2ccc(Cl)cc2)cs1` ; measured pEC50: < 4.82

Lookup result for `O=[N+]([O-])c1ccc(O)c(/N=C/C=C(\O)c2ccc(Cl)c(Cl)c2)c1` ; measured pEC50: < 4.82

Lookup result for `CCCCCC/N=C1\CC(C)(C)CC(O)=C1C(=O)CCCN1C(=O)c2ccccc2C1=O` ; measured pEC50: < 4.82

Lookup result for CCOCc1cc(CN2CCN(CCC(C)C)C(CCO)C2)ccc1OC (stereo not given) ; measured pEC50: < 4.82

###

tested on: Plasmodium falciparum; assay: ST_JUDE: Plasmodium falciparum K1 EC50 (uM) as measured by SYBR green dye; assay type: functional, organism-based
A collection of molecules and their measured EC50

molecule	measurement_target	EC50
Oc1c(C(Nc2ccccn2)c2ccccc2Br)cc(Cl)c2cccnc12 (centres undefined)	Plasmodium falciparum	> 15 µM
N#Cc1ccc(C(=O)N(Cc2cccnc2)c2nc3c(F)cccc3s2)cc1	Plasmodium falciparum	> 15 µM
CCCC(=O)N1CCN(c2ccc(NC(=O)c3cccc(OCC)c3)cc2Cl)CC1	Plasmodium falciparum	> 15 µM

Continue with the next molecule.
Lookup result for `COc1cccc(C(=O)Nc2ccc(-c3nnc(-c4ccco4)o3)cc2)c1` ; measured EC50: > 15 µM

###

test system: Plasmodium falciparum; test: ST_JUDE: Plasmodium falciparum 3D7 EC50 (uM) as measured by SYBR green dye; type: functional, organism-based
pEC50: −log10 of the molar value.
result_type: pEC50

Consider the following illustrative entries.
compound	pEC50
CCN(CC)C(=O)c1ccc2c(c1)N(Cc1ccccc1)C(=O)c1ccccc1S2(=O)=O	< 4.82
COc1cccc(C2C(C(=O)Nc3ccccc3C)=C(C)Nc3nnnn32)c1 (stereo not drawn)	< 4.82

Continue with the next compound.
Lookup result for `CCCOc1ccc(-c2nonc2NC(=O)c2cccc(OCC)c2)cc1OCCC` ; measured pEC50: < 4.82

###

system: Plasmodium falciparum; experiment: ST_JUDE: Plasmodium falciparum 3D7 EC50 (uM) as measured by SYBR green dye; assay type: functional, organism-based
result_type: EC50

structure_string	measurement_target	result_type	result_value
CC(=O)c1c(C)n(CCOc2ccc(F)cc2)c2ccccc12	Plasmodium falciparum	EC50	> 15 µM
COc1cccc(NC(=O)Cn2c3ccccc3c(=O)c3cc(Cl)ccc32)c1	Plasmodium falciparum	EC50	> 15 µM

Continue with the next compound.
Lookup result for `Cc1ccc(NC(=O)c2ccc(Br)o2)c(Br)c1` ; measured EC50: > 15 µM

###

system: Plasmodium falciparum; assay: ST_JUDE: Plasmodium falciparum 3D7 EC50 (uM) as measured by SYBR green dye; type: functional, organism-based
result_type: pEC50
Value format note: pEC50 is -log10 of concentration (mol/L); just state the number.

Consider the following illustrative entries.
molecule	result_type	result_value
COC(=O)C1=CNC=C(C(=O)OC)C1c1ccc(Cl)c([N+](=O)[O-])c1	pEC50	6.21
C=CCN1C(=S)NC2c3cc(Br)ccc3OC1(C)C2C (stereo not drawn)	pEC50	5.59
Cc1ccc(/C=C2\Oc3c(ccc(O)c3CN3CCCCC3)C2=O)cc1	pEC50	5.54

Lookup result for `CCOC(=O)c1ccc2nc(C)cc(Nc3ccc(C)c(Cl)c3)c2c1` ; measured pEC50: 5.72

Lookup result for CCOc1cccc(CN2CCCC(C(=O)c3cccc(C(F)(F)F)c3)C2)c1O (stereo not drawn) ; measured pEC50: 5.48

Lookup result for `CC(C)c1ccc(NC(=O)CSc2n[nH]c(-c3ccccc3Cl)n2)cc1` ; measured pEC50: 5.32

Lookup result for `CCOc1ccc(NC(=O)CSc2nncc(O)n2)cc1` ; measured pEC50: 6.13

Lookup result for Cc1ccccc1NC(=O)C1c2ccccc2C(=O)N2CCc3ccccc3C12 (stereo not drawn) ; measured pEC50: 5.38

Lookup result for CCc1ccc(C(Nc2ccccn2)c2ccc3cccnc3c2O)cc1 (stereo not drawn) ; measured pEC50: 5.64

Lookup result for `CCOc1cc(/C=N/N=C(N)N)ccc1OCc1ccccc1` ; measured pEC50: 6.06

Lookup result for O=C1CC(c2ccc(C(F)(F)F)cc2)C2=C(CC(c3ccccc3Cl)CC2=O)N1 (stereo not drawn) ; measured pEC50: 5.78

Lookup result for CC(C(=O)c1ccc(-c2ccccc2)cc1)[n+]1ccccc1 (stereo not drawn) ; measured pEC50: 5.15

Lookup result for `CN(C)CCCNc1c2ccccc2nc2ccccc12` ; measured pEC50: 6.27

Lookup result for O=[N+]([O-])c1ccc(C2Nc3c(O)ccc(Br)c3C3C=CCC32)cc1 (stereo not drawn) ; measured pEC50: 5.15

Lookup result for `Cc1ccccc1C(=O)N(Cc1cccnc1)c1nc2c(F)cccc2s1` ; measured pEC50: 5.33

Lookup result for CCO/C(O)=C1\C(CC)=NC2=C(C(=O)CC(C)(C)C2)C1c1ccc(Cl)cc1Cl (stereo not drawn) ; measured pEC50: 5.88

###

assay: ST_JUDE: Cytotoxicity using luciferase to measure ATP as an indicator of the viability of human foreskin fibroblast cells (BJ); assay type: toxicity, cell-based
result_type: EC50

Consider the following illustrative entries.
molecule	EC50
C[n+]1ccccc1/C=C/c1ccc([N+](=O)[O-])cc1	> 33.8 µM
CSc1ccc2ccccc2[n+]1C	> 37.1 µM
CCCCCCCn1ccc(=N)cc1	> 51.4 µM
COc1ccc(C2CC(=O)C3=C(C2)NC(=O)CC3c2ccc(Br)cc2)cc1OC (configuration not stated)	> 47.5 µM

Lookup result for `CN(C(=O)c1cc2c(s1)-c1ccccc1S(=O)(=O)C2)c1cccc(C(F)(F)F)c1` ; measured EC50: > 40.8 µM

Lookup result for COc1ccc(NC(=O)C2c3ccccc3C(=O)N(CC(C)C)C2c2cccs2)cc1Cl (configuration not stated) ; measured EC50: > 40.4 µM

Lookup result for CCCO/C(O)=C1\C(C)=NC2=C(C(=O)CC(c3ccc(OC)cc3)C2)C1c1ccccc1F (configuration not stated) ; measured EC50: > 44.6 µM

###

assay: ST_JUDE: Cytotoxicity using luciferase to measure ATP as an indicator of the viability of human foreskin fibroblast cells (BJ); assay type: toxicity, cell-based
pEC50: −log10 of the molar value.
result_type: pEC50

Consider the following illustrative entries.
compound	pEC50
Cc1ccc(C(O)(CNCc2ccccc2)c2ccc(Br)cc2)cc1 (stereo not drawn)	< 4.32
CC(C)(C)c1ccc(S(=O)(=O)NC2=C/C(=N\c3ccc(O)cc3)C(=O)c3ccccc32)cc1	5.33

Lookup result for CCCO/C(O)=C1\C(C)=NC2=C(C(=O)CC(c3ccc(OC)c(OC)c3)C2)C1c1ccccc1F (stereo not drawn) ; measured pEC50: 8.74

Lookup result for Cc1ccc(C2(c3ccc(C)cc3)CC2C(=O)Nc2ccc([N+](=O)[O-])cc2O)cc1 (stereo not drawn) ; measured pEC50: 4.96

Lookup result for `CC(C)c1ccc(NC(=O)/C=C/c2ccccc2Cl)cc1` ; measured pEC50: < 4.39

Lookup result for CCCO/C(O)=C1\C(C)=NC2=C(C(=O)CC(c3ccc(OC)c(OC)c3)C2)C1c1cccc(Cl)c1 (stereo not drawn) ; measured pEC50: < 4.42
